molecular target: ZFP SBS#1350 (synthetic); assay: EMSA; details: tags: MBP fusion
Sequence (chain, as listed by the source): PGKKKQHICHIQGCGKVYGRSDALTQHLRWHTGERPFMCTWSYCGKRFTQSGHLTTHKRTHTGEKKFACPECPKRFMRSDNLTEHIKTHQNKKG

| Binder | Kd, nM |
| --- | --- |
| CAGTGAATG (dsDNA) DNA 1: CAGTGAATG DNA 2: CATTCACTG | 74.1 |
